Tested on: Providencia rettgeri S-121
Experiment: Microbroth dilution (MHB) method, NCCLS M7-A2
Assay type: cell-based
Conditions: Providencia rettgeri, S121, Pr S-121, inoculum 5 x 10^5 cfu/ml, 35 °C/18 hr, read-out: MIC
Experimental: The test organisms were obtained from ATCC and clinical laboratories. The 96-well microtitre plates containing […] of serially diluted test compounds in Mueller Hinton Broth (MHB) (conc. range 64-0.03 µg/ml) were inoculated with […] of bacterial suspension in MHB so that an inoculum size of 5 x 10^5 cfu/ml was achieved. EC. (S- 63): Eschericia coli Ecl. (S- 130): Enterobacter cloacae Pa. (S- 67): Pseudomonas aeruginosa Kp. (S- 80): Klebsiella pneumoniae Pr. […]
endpoint_label: MIC (µg/mL)
Answer format: numeric, µg/mL implied, no suffix.

Looking up Cc1c(F)c(N2CCC(n3cc(-c4ccccc4)nn3)C2)c(F)c2c1c(=O)c(C(=O)O)cn2C1CC1 (stereo not shown) [Example 48] , I see its MIC listed as 0.015

Looking up COc1c(N2CCC(n3cc(C)nn3)C2)c(F)cc2c(=O)c(C(=O)O)cn(C3CC3)c12 (stereo not shown) [Example 33] , I see its MIC listed as 2

Looking up Cc1nnn(C2CCN(c3c(F)cc4c(=O)c(C(=O)O)cn(C5CC5)c4c3F)C2)c1C (stereo not shown) [Example 26] , I see its MIC listed as 1

Looking up COc1c(N2CC[C@H](n3ccnn3)C2)c(F)cc2c(=O)c(C(=O)O)cn(C3CC3)c12 [Example 31] , I see its MIC listed as 0.5
